assayMethodText: Cmax in male ICR (CD-1) mouse at 10 mg/kg, ip measured upto 24 hrs by LC-MS/MS analysis
Format: ADME, organism-based
particulars: in vivo
quantityName: Cmax (ng/mL)

CC12c3ccc(Cl)cc3CCN1CCc1c2[nH]c2ccc(Cl)cc12 (stereo unspecified) ... 1450

====

assayMethodText: Half life in male ICR (CD-1) mouse at 20 mg/kg, po measured upto 24 hrs by LC-MS/MS analysis
Format: ADME, organism-based
particulars: in vivo
quantityName: half-life (h)

CC12c3ccc(Cl)cc3CCN1CCc1c2[nH]c2ccc(Cl)cc12 (stereo unspecified) ... 2.6

====

assayMethodText: Clearance in male ICR (CD-1) mouse at 5 mg/kg, iv measured upto 24 hrs by LC-MS/MS analysis
Assay type: ADME, organism-based
particulars: in vivo
quantityName: clearance (mL/min/kg)

CC12c3ccc(Cl)cc3CCN1CCc1c2[nH]c2ccc(Cl)cc12 (stereo unspecified) ... 56.1

====

assayMethodText: Cmax in male ICR (CD-1) mouse at 20 mg/kg, po measured upto 24 hrs by LC-MS/MS analysis
Format: ADME, organism-based
particulars: in vivo
quantityName: Cmax (ng/mL)

CC12c3ccc(Cl)cc3CCN1CCc1c2[nH]c2ccc(Cl)cc12 (stereo unspecified) ... 832

====

assayMethodText: Oral bioavailability in male ICR (CD-1) mouse at 20 mg/kg measured upto 24 hrs by LC-MS/MS analysis
Assay type: ADME, organism-based
particulars: in vivo
quantityName: bioavailability (%)

CC12c3ccc(Cl)cc3CCN1CCc1c2[nH]c2ccc(Cl)cc12 (stereo unspecified) ... 40

====

assayMethodText: Tmax in male ICR (CD-1) mouse at 20 mg/kg, po measured upto 24 hrs by LC-MS/MS analysis
Format: ADME, organism-based
particulars: in vivo
quantityName: Tmax (min)

CC12c3ccc(Cl)cc3CCN1CCc1c2[nH]c2ccc(Cl)cc12 (stereo unspecified) ... 19.8

====

assayMethodText: Bioavailability in male ICR (CD-1) mouse at 10 mg/kg, ip measured upto 24 hrs by LC-MS/MS analysis
Format: ADME, organism-based
particulars: in vivo
quantityName: bioavailability (%)

CC12c3ccc(Cl)cc3CCN1CCc1c2[nH]c2ccc(Cl)cc12 (stereo unspecified) ... 97

====

assayMethodText: Tmax in male ICR (CD-1) mouse at 10 mg/kg, ip measured upto 24 hrs by LC-MS/MS analysis
Format: ADME, organism-based
particulars: in vivo
quantityName: Tmax (min)

CC12c3ccc(Cl)cc3CCN1CCc1c2[nH]c2ccc(Cl)cc12 (stereo unspecified) ... 15

====

System: HCT-116
assayMethodText: Antiproliferative activity against human HCT-116 cells assessed as inhibition rate at 20 uM incubated for 24 hrs by MTT assay relative to control
Type: functional
quantityName: inhibition at 20 µM

COc1ccc2c(c1)C1(C)c3[nH]c4ccc(Cl)cc4c3CCN1CC2 (stereo unspecified) ... 77%
CC12c3ccccc3CCN1CCc1c2[nH]c2ccc(Cl)cc12 (stereo unspecified) ... 83.7%
Cc1ccc2[nH]c3c(c2c1)CCN1CCc2ccccc2C31C (stereo unspecified) ... 59.5%
C[C@@]12c3ccc(Cl)cc3CCN1CCc1c2[nH]c2ccc(Cl)cc12 ... 84%
CC12c3ccccc3CN1CCc1c2[nH]c2ccc(Cl)cc12 (stereo unspecified) ... 43.8%
CC12c3ccccc3CC(=O)N1CCc1c2[nH]c2ccccc12 (stereo unspecified) ... 65.2%
